Where do the numbers come from? From paper PMC9309159.

- Target Entity: DEGP protein
- Test Description: SPRi assay of peptide binding to DEGP protein
- Set-up: species or system E. coli MSI001
- Condition Info: control peptide immobilized on chip, value printed in picture of Fig. 8e
- Method: Protein profiles were determined by cPCoA distance among samples and characterized by close intragroup distances among samples. b Hierarchical clustering analysis of proteins from the HEE, VTK and input groups. […] Label-free mass spectrometry was used to quantitate proteins from the HEE, VTK and input groups. […] Binding data were collected and analyzed by commercial SPRi analysis software (Plexera SPR Data Analysis Model, Plexera, USA). […]
Ends that are not written are not given here. * marks the point of attachment. Biotin = O=C1N[C@H]2[C@H](CS[C@H]2CCCCC(=O)*)N1
Endpoint: Kd

I would be grateful if you could share the reported Kd for Biotin-CHEEWLPAC (cysteine pairing not given here) [control HEE heptapeptide] . 5.25 µM
